Where do the numbers come from? From patent US20220135638A1.

# experimental.system: T1, full-length human GLP-1R (GenBank NM_002062) with an N-terminal FLAG tag on HEK-293T cells (human), P43220
# T1 chain: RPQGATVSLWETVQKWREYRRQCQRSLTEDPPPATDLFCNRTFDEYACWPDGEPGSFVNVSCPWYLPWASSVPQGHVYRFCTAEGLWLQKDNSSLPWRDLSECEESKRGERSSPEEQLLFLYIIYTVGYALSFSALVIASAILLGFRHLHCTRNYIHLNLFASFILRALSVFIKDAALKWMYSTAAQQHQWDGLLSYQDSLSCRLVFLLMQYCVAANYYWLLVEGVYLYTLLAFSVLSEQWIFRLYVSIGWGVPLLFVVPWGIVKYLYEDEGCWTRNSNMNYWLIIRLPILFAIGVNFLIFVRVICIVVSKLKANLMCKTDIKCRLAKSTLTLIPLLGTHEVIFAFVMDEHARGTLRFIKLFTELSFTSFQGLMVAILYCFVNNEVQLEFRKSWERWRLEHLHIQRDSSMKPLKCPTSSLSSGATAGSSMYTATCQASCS
# run.description: cell-based or functional assay
Square brackets hold non-standard residues; d marks the D form. Primed or numbered codes have the meaning given here. Side chains are listed from the residue outwards. Ends that are not written are not given here. * marks the point of attachment. C18 diacid = O=C(O)CCCCCCCCCCCCCCCCC(=O)*; Iva = CC[C@](C)(N)C(=O)O; PEG3′ = not defined here; Aib = CC(C)(N)C(=O)O
test.readout: GLP EC50 (nM)
Output spec: scalar in nM, unitless text.

Noted for Y[Aib]EGTFISDYSIALDR[Aib]HQ[Aib]NFVNW[Iva]LAQRPSSGAPPPK([PEG3′-PEG3′-C18 diacid])R (ends and bridges not checked) [Compound No 940] : its GLP EC50 reads 525
